Taken from patent US20190231751A1.

- target_of_assay: UniProtKB P45983
- measurement_protocol: In vitro JNK1 inhibition (Table 1)
- Format: biochemical
pIC50: −log10 of the molar value.
Kindly state pIC50 for each of the entries shown.

Enquiry: Fill in the blank: the reported pIC50 of O=C(Cc1ccc(C(F)(F)F)c2ncccc12)Nc1scc(Cl)c1-c1ncn[nH]1 is ____.
Return: > 7.00

Enquiry: And what about the compound O=C(Cn1c(=O)ccc2cc(F)c(F)cc21)Nc1scc(Br)c1-c1ncn[nH]1 ?
Return: > 7.00

Enquiry: And what about the compound O=C(Cc1cc2ncccc2cc1F)Nc1scc(Br)c1-c1ncn[nH]1 ?
Return: > 7.00

Enquiry: And what about the compound Cc1n[nH]c(-c2c(C)csc2NC(=O)CN2C(=O)CCc3ccccc32)n1 ?
Return: > 7.00

Enquiry: And what about the compound O=C(Cn1c(=O)ccc2cnccc21)Nc1scc(Br)c1-c1ncn[nH]1 ?
Return: > 7.00

Enquiry: And what about the compound N#Cc1csc(NC(=O)Cn2c(=O)ccc3cc(C(F)(F)F)ccc32)c1-c1ncco1 ?
Return: > 7.00

Enquiry: And what about the compound O=C(Cn1c(=O)ccn2nccc12)Nc1scc(Cl)c1-c1ncn[nH]1 ?
Return: > 7.00

Enquiry: And what about the compound COc1ccc(CC(=O)Nc2ccsc2-c2c[nH]c(C)n2)cc1 ?
Return: < 5.00

Enquiry: And what about the compound COc1ccc(CC(=O)Nc2ccsc2-n2cccn2)cc1 ?
Return: < 5.00

Enquiry: And what about the compound CN1CCN(CCCn2cnc(-c3c(Cl)csc3NC(=O)Cn3c(=O)ccc4cc(C(F)(F)F)ccc43)n2)CC1 ?
Return: > 7.00

* * *

Recorded below: IC50, system JNK1 (Homo sapiens, UniProt P45983).

Enquiry: Fill in the blank: the reported IC50 of N#Cc1csc(NC(=O)CN2C(=O)CCc3ccccc32)c1-c1ncn[nH]1 is ____.
Return: < 100 nM

Enquiry: And what about the compound O=C(Cn1c(=O)ccc2cc(C(F)(F)F)ccc21)Nc1ccsc1-c1cscn1 ?
Return: < 100 nM

Enquiry: And what about the compound O=C(Cn1c(=O)ccn2nc(C(F)(F)F)cc12)Nc1scc(Cl)c1-c1ncn[nH]1 ?
Return: < 100 nM

* * *

Recorded below: pIC50, system JNK3 (Homo sapiens, UniProt P53779).
pIC50: −log10 of the molar value.

Enquiry: Fill in the blank: the reported pIC50 of COCn1nnnc1-c1ccsc1NC(=O)Cc1ccc(OC)cc1 is ____.
Return: 5.00 to 7.00

Enquiry: And what about the compound O=C(CN1C(=O)CCc2ncccc21)Nc1scc(Cl)c1-c1nccs1 ?
Return: > 7.00

Enquiry: And what about the compound O=C(Cn1c(=O)ccn2nc(C(F)(F)F)cc12)Nc1scc(Br)c1-c1ncn[nH]1 ?
Return: > 7.00

Enquiry: And what about the compound Cn1cnc(-c2c(Cl)csc2NC(=O)Cn2c(=O)ccc3nc(C(F)(F)F)ccc32)n1 ?
Return: > 7.00

Enquiry: And what about the compound Cc1n[nH]c(-c2c(C)csc2NC(=O)CN2C(=O)CCc3ccccc32)n1 ?
Return: > 7.00

Enquiry: And what about the compound O=C(Cn1c(=O)ccc2cc(C(F)(F)F)ccc21)Nc1scc(Cl)c1-c1ncn[nH]1 ?
Return: > 7.00

Enquiry: And what about the compound O=C(Cn1c(=O)ccc2cc(C(F)(F)F)c(F)cc21)Nc1scc(Br)c1-c1ncn[nH]1 ?
Return: > 7.00

Enquiry: And what about the compound O=C(Cc1cccc2ncccc12)Nc1scc(Br)c1-c1ncn[nH]1 ?
Return: > 7.00

Enquiry: And what about the compound O=C(CN1C(=O)CCc2ncccc21)Nc1scc(Br)c1-c1ncn[nH]1 ?
Return: > 7.00

Enquiry: And what about the compound O=C(Cn1c(=O)ccc2cc(C(F)(F)F)ccc21)Nc1scc(Cl)c1-c1ncn(CCCN2CCCC2)n1 ?
Return: > 7.00

Enquiry: And what about the compound O=C(Cc1cccc2ncc(F)cc12)Nc1scc(Br)c1-c1nc[nH]n1 ?
Return: > 7.00

Enquiry: And what about the compound O=C(Cc1cccc2cnccc12)Nc1scnc1-c1cscn1 ?
Return: > 7.00

Enquiry: And what about the compound O=C(CN1C(=O)CCc2cc(C(F)(F)F)ccc21)Nc1scc(Br)c1-c1ncn[nH]1 ?
Return: > 7.00

Enquiry: And what about the compound O=C(Cc1cccc2ccncc12)Nc1scc(Br)c1-c1ncn[nH]1 ?
Return: > 7.00

Enquiry: And what about the compound Cc1csc(NC(=O)CN2C(=O)CCc3ccccc32)c1-c1ncn[nH]1 ?
Return: > 7.00

Enquiry: And what about the compound N#Cc1csc(NC(=O)Cc2cccc3ncccc23)c1-c1nnc[nH]1 ?
Return: > 7.00

Enquiry: And what about the compound N#Cc1csc(NC(=O)Cn2c(=O)ccc3cc(C(F)(F)F)ccc32)c1-c1ncco1 ?
Return: > 7.00

Enquiry: And what about the compound O=C(Cn1c(=O)ccc2cc(F)ccc21)Nc1scc(Br)c1-c1ncn[nH]1 ?
Return: > 7.00

Enquiry: And what about the compound Cn1cnc(-c2c(Br)csc2NC(=O)CN2C(=O)CCc3ncccc32)n1 ?
Return: > 7.00

Enquiry: And what about the compound O=C(Cc1cccc2cnccc12)Nc1scc(Cl)c1-c1ncn[nH]1 ?
Return: > 7.00

Enquiry: And what about the compound O=C(Cc1cccc2ncsc12)Nc1scc(Br)c1-c1ncn[nH]1 ?
Return: > 7.00

* * *

Recorded below: IC50, system JNK3 (Homo sapiens, UniProt P53779).

Enquiry: Hello, I am looking for reported IC50 with JNK3 (Homo sapiens, UniProt P53779) for CN(C)CCCn1cnc(-c2c(Cl)csc2NC(=O)Cn2c(=O)ccc3cc(C(F)(F)F)ccc32)n1 . Could you help?
Return: < 100 nM

Enquiry: And what about the compound N#Cc1csc(NC(=O)Cc2cccc3ncccc23)c1-c1cnccn1 ?
Return: < 100 nM

Enquiry: And what about the compound Cn1ccc(-c2sccc2NC(=O)Cc2cccc3ccccc23)n1 ?
Return: > 10000 nM

Enquiry: And what about the compound COc1ccc(CC(=O)Nc2ccsc2-c2c[nH]c(C)n2)cc1 ?
Return: > 10000 nM

Enquiry: And what about the compound O=C(CN1C(=O)CCc2ccccc21)Nc1scc(Cl)c1-c1ncn[nH]1 ?
Return: < 100 nM

Enquiry: And what about the compound Cn1cnc(-c2c(Cl)csc2NC(=O)Cn2c(=O)ccn3nc(C(F)(F)F)cc23)n1 ?
Return: < 100 nM

Enquiry: And what about the compound Cn1cnc(-c2c(Cl)csc2NC(=O)Cn2c(=O)ccn3nccc23)n1 ?
Return: < 100 nM

Enquiry: And what about the compound N#Cc1ccc2ccc(=O)n(CC(=O)Nc3scc(Br)c3-c3ncn[nH]3)c2c1 ?
Return: < 100 nM

Enquiry: And what about the compound COc1ccc(CC(=O)Nc2ccsc2-n2cncn2)cc1 ?
Return: > 10000 nM

Enquiry: And what about the compound O=C(CN1C(=O)CCc2ncccc21)Nc1scc(Br)c1-c1ncco1 ?
Return: < 100 nM

* * *

Kindly state pIC50 for each of the entries shown.
- target_of_assay: JNK2 (Homo sapiens)
- Sequence (P45984 whole entry, species assumed): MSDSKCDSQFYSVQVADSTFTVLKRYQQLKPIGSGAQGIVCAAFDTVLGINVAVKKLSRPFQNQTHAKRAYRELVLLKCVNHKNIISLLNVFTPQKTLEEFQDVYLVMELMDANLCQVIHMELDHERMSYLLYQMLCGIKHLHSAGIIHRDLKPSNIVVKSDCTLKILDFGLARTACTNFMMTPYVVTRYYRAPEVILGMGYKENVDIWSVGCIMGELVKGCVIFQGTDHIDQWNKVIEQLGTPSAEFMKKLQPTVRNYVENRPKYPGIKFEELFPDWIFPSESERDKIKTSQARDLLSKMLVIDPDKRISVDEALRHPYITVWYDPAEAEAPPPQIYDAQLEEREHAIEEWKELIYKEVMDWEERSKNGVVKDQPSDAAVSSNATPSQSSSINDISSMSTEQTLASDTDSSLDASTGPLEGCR
pIC50: −log10 of the molar value.

Enquiry: Fill in the blank: the reported pIC50 of O=C(Cn1c(=O)ccc2cc(C(F)(F)F)ccc21)Nc1scc(Cl)c1-c1ncn(CCCN2CCCC2)n1 is ____.
Return: > 7.00

Enquiry: And what about the compound Cn1cnc(-c2c(Cl)csc2NC(=O)Cn2c(=O)ccc3cnc(C(F)(F)F)cc32)n1 ?
Return: > 7.00

Enquiry: And what about the compound O=C(Cn1c(=O)ccc2cc(F)ccc21)Nc1scc(Br)c1-c1ncn[nH]1 ?
Return: > 7.00

Enquiry: And what about the compound N#Cc1csc(NC(=O)Cn2c(=O)ccc3cc(C(F)(F)F)ccc32)c1-c1cscn1 ?
Return: > 7.00

Enquiry: And what about the compound N#Cc1csc(NC(=O)Cc2cccc3cnccc23)c1-c1ncn[nH]1 ?
Return: > 7.00

Enquiry: And what about the compound COc1ccc(CC(=O)Nc2sccc2-c2nnn(C)n2)cc1 ?
Return: 4.30 to 5.00

Enquiry: And what about the compound O=C(CN1C(=O)CCc2ccc(Cl)cc21)Nc1scc(Br)c1-c1ncn[nH]1 ?
Return: > 7.00

Enquiry: And what about the compound O=C(CN1C(=O)CCc2ncccc21)Nc1scc(Br)c1-c1ncn[nH]1 ?
Return: > 7.00

Enquiry: And what about the compound O=C(Cn1c(=O)ccc2cc(C(F)(F)F)ccc21)Nc1sc(Cl)cc1-c1ncn[nH]1 ?
Return: 5.00 to 7.00

Enquiry: And what about the compound O=C(Cc1cccc2ncccc12)Nc1scc(Br)c1-c1ncn[nH]1 ?
Return: > 7.00

Enquiry: And what about the compound N#Cc1ccc2c(ccc(=O)n2CC(=O)Nc2scc(Cl)c2-c2nc[nH]n2)c1 ?
Return: > 7.00

Enquiry: And what about the compound O=C(CN1C(=O)CCc2cnccc21)Nc1scc(Br)c1-c1ncn[nH]1 ?
Return: > 7.00

Enquiry: And what about the compound O=C(CN1C(=O)CCc2cc(F)ccc21)Nc1scc(Br)c1-c1ncn[nH]1 ?
Return: > 7.00

Enquiry: And what about the compound O=C(Cn1c(=O)ccc2ccc(C(F)(F)F)cc21)Nc1scc(Br)c1-c1ncn[nH]1 ?
Return: > 7.00

Enquiry: And what about the compound C#Cc1ccc2c(ccc(=O)n2CC(=O)Nc2scc(Br)c2-c2ncn[nH]2)c1 ?
Return: > 7.00

Enquiry: And what about the compound COc1ccc(CC(=O)Nc2ccsc2-c2ncco2)cc1 ?
Return: 4.30 to 5.00

Enquiry: And what about the compound O=C(CN1C(=O)CCc2cc(C(F)(F)F)ccc21)Nc1scc(Br)c1-c1ncn[nH]1 ?
Return: > 7.00

Enquiry: And what about the compound Cc1nnc(-c2sccc2NC(=O)Cc2cccc3ccccc23)o1 ?
Return: 4.30 to 5.00

Enquiry: And what about the compound O=C(Cn1c(=O)ccc2cc(C(F)(F)F)ccc21)Nc1scc(Cl)c1-c1ncn(CCCN2CCOCC2)n1 ?
Return: > 7.00

Enquiry: And what about the compound N#Cc1csc(NC(=O)CN2C(=O)CCc3ncccc32)c1-c1nccs1 ?
Return: > 7.00

Enquiry: And what about the compound O=C(Cn1c(=O)ccc2cc(C(F)(F)F)ccc21)Nc1scc(Br)c1-n1nccn1 ?
Return: > 7.00

Enquiry: And what about the compound COc1ccc(CC(=O)Nc2ccsc2-c2nc(C)n[nH]2)cc1 ?
Return: 5.00 to 7.00

Enquiry: And what about the compound O=C(Cn1c(=O)ccn2nccc12)Nc1scc(Br)c1-c1ncn[nH]1 ?
Return: > 7.00

Enquiry: And what about the compound O=C(Cn1c(=O)ccn2nc(C(F)(F)F)cc12)Nc1scc(Br)c1-c1ncn[nH]1 ?
Return: > 7.00

Enquiry: And what about the compound O=C(CN1C(=O)CCc2ncccc21)Nc1scc(Br)c1-c1ncco1 ?
Return: > 7.00

Enquiry: And what about the compound COc1ccc(CC(=O)Nc2ccsc2-c2nc(C(F)(F)F)n[nH]2)cc1 ?
Return: 4.30 to 5.00

Enquiry: And what about the compound O=C(Cn1c(=O)ccc2ccc(F)cc21)Nc1scc(Br)c1-c1ncn[nH]1 ?
Return: > 7.00
